Answer each item with its documented abundance fitness.
B1: Homeobox expressed in ES cells 1, residues 110 to 165; numbered along this chain, Q9UBX0 (parent)
chain: RPRTAFTQNQIEVLENVFRVNCYPGIDIREDLAQKLNLEEDRIQIWFQNRRAKLKR

Variants of: B1
Test: abundance fitness (aPCA) (normalised: wild type 0, dead -1); higher = more abundant; growth selection in yeast, the domain comes from the species named
Conditions: Homo sapiens

mutation: P2C
abundance fitness: 0.048

For every listed record, write down its abundance fitness.
1. R3S
2. I11F
3. C22T

Response:
1. -0.181
2. -0.648
3. -0.013
